Reference source: paper PMC4774972

System: K. pneumoniae CI Koprana 100650661:1, PmxR
Experiment: microbe, parasite or virus in culture
Type: cell-based, Klebsiella pneumoniae
Settings: carbapenem & polymyxin resistant clinical isolate; MHB, 5 × 10^5 CFU/mL, 18 h at 37 °C
Bridge positions count the residues as written; N and C are the ends. Square brackets hold non-standard residues; d marks the D form. Peptide text beside a SMILES is read from it. * marks the point of attachment. Phe(4-NH2) = Nc1ccc(C[C@H](N)C(=O)O)cc1; Octanoyl = CCCCCCCC(=O)*; Dab = NCC[C@H](N)C(=O)O
ENDPOINT: MIC K. pneumoniae CI Koprana 100650661:1, PmxR

Below are worked cases with known answers.
compound="CCCCCCCC(=O)N[C@@H](CCN)C(=O)N[C@H](C(=O)N[C@@H](CCN)C(=O)N[C@H]1CCNC(=O)[C@H]([C@@H](C)O)NC(=O)[C@H](CCN)NC(=O)[C@H](CCN)NC(=O)[C@H](CC(C)C)NC(=O)[C@@H](Cc2ccccc2)NC(=O)[C@H](Cc2ccc(N)cc2)NC1=O)[C@@H](C)O [Compound 34] (Octanoyl-[Dab]T[Dab][Dab][Phe(4-NH2)][dF]L[Dab][Dab]T; lactam 4-C)" reported_value=">32 µg/mL"
compound="CCCCCCCC(=O)N[C@@H](CCN)C(=O)N[C@H](C(=O)N[C@@H](CCN)C(=O)N[C@H]1CCNC(=O)[C@H]([C@@H](C)O)NC(=O)[C@H](CCN)NC(=O)[C@H](CCN)NC(=O)[C@H](CC(C)C)NC(=O)[C@@H](Cc2ccccc2)NC(=O)[C@H](CCNC(=O)[C@@H](N)CCC(=O)O)NC1=O)[C@@H](C)O [Compound 32] (Octanoyl-[Dab]T[Dab][Dab][Dab](Glu)[dF]L[Dab][Dab]T; lactam 4-C)" reported_value=">32 µg/mL"

Next compound, please.
State MIC K. pneumoniae CI Koprana 100650661:1, PmxR (K. pneumoniae CI Koprana 100650661:1, PmxR) of CCCCCCCC(=O)N[C@@H](CCN)C(=O)N[C@H](C(=O)N[C@@H](CCN)C(=O)N[C@H]1CCNC(=O)[C@H]([C@@H](C)O)NC(=O)[C@H](CCN)NC(=O)[C@H](CCN)NC(=O)[C@H](CC(C)C)NC(=O)[C@@H](Cc2ccccc2)NC(=O)[C@H](CCN)NC1=O)[C@@H](C)O [Compound 11, polymyxin B3] (Octanoyl-[Dab]T[Dab][Dab][Dab][dF]L[Dab][Dab]T; lactam 4-C) . >128 µg/mL
